Sourced from ChEMBL document CHEMBL1201862

system: NCI-H226; test: NCI tumour cell line growth inhibition, 48 h
Active and inactive are the calls of the source. No stated cut-off is given here; in the data, active = GI50 up to about 1.1 µM and inactive = higher.
Measured property: GI50

Given "CC(C)C1=C(Cc2ccccc2)C(=O)O/C1=C\c1cc(Cl)c(O)c(Cl)c1" , respond with its GI50.
20.3 µM (inactive)

For "O=Cc1cccc2c1Oc1c(cccc1C(=O)O)S2" , write its GI50.
> 100 µM (inactive)

Determine from records and report GI50 for "S=C1CSc2c(ccc3ccccc23)N1"
> 100 µM (inactive)

Give the reported GI50 for this molecule. "O=[N+]([O-])c1ccc(Oc2c(Cl)cc(S(=O)(=O)N/C(=N\O)Nc3ccc(Cl)cc3)cc2Cl)cc1"
14 µM (inactive)

Please indicate GI50 recorded for "O=S(=O)(N=[Se](=O)(c1ccccc1)c1ccccc1)c1ccccc1"
> 100 µM (inactive)

Query GI50 for NC(=O)NCCSC1CCCCC1O (stereo not given)
> 100 µM (inactive)

Input "CC(=O)O[C@H]1CC[C@@]2(C)C(=CC[C@@H]3[C@@H]2CC[C@]2(C)c4c(C)nn(-c5ccccc5)c4C[C@@H]32)C1" , output reported GI50.
36.6 µM (inactive)

Query GI50 for "O=c1[nH]c(=O)n(COCc2ccccc2)c2ccsc12"
> 100 µM (inactive)

Fill in reported GI50 for this entry: CC(NC(=O)/C(=C/c1ccccc1O)NC(=O)c1ccccc1)C(=O)O (stereo not given)
14 µM (inactive)

# return recorded GI50 for input CC1(C)OCC2OC3([C@H]4OC(C)(C)O[C@@H]4CO)OC(C)(C)OC3C2O1 (stereo not given in full)
> 100 µM (inactive)

----------
test system: CAKI-1; assay: NCI tumour cell line growth inhibition, 48 h
Active and inactive are the calls of the source. Rule as the data show it: active = GI50 up to about 1.1 µM and inactive = higher.
Reply using exactly one outcome from active, inactive

I would be grateful if you could indicate the recorded call for Cc1nc(N)nc(N)c1-c1ccc(Cl)c(Cl)c1 [METOPRINE] .
inactive

What outcome does the record of this test show for "Cc1c(C)c2c(c(N)c1C#N)C(=O)N(CCc1ccccc1)C2=O" ?
inactive

Kindly provide the recorded test outcome for the following compound: "S=C(NCCc1ccccn1)N/N=C/c1ccccn1"
active

----------
test system: Malme-3M; test: NCI tumour cell line growth inhibition, 48 h
The source made the active and inactive calls. Rule as the data show it: active = GI50 up to about 1.1 µM and inactive = higher.
Measured property: GI50

Retrieve GI50 measured for "CCOc1ccc(N/C(=C(/C(Cl)=C(/Cl)N(CC)CC)[N+](=O)[O-])n2nnc3ccccc32)cc1" and print it.
17.9 µM (inactive)

Tell me GI50 reported for "Cc1cc(=O)n2nc(CSc3nnc(N)s3)sc2n1"
> 100 µM (inactive)

Complete the entry with GI50 for COC(=O)C(c1n[nH]c2ccccc12)C(C(=O)OC)c1n[nH]c2ccccc12 (centres undefined)
42.7 µM (inactive)

Could you please provide reported GI50 for "COc1ccc(/C(=N/O)c2ccccc2-c2nc3ccccc3c(=O)n2-c2ccc(S(=O)(=O)Nc3ncccn3)cc2)cc1C" ? Thanks!
> 10 µM (inactive)

----------
Kindly supply the reported GI50 values for the records listed here.
system: ACHN; assay: NCI tumour cell line growth inhibition, 48 h
Active and inactive are the calls of the source. Cut-off read from the data, not from the text of the source: active = GI50 up to about 1.1 µM and inactive = higher.

Give a short answer stating reported GI50 for "COC(=O)c1ccc(OCc2ccc3nc(OC)c(OC)nc3c2)cc1" .
> 100 µM (inactive)

Give reported GI50 value for CC(=O)OCC1OC(n2c(N)c(C#N)c(-c3ccc(C)cc3)c(C#N)c2=S)C(OC(C)=O)C(OC(C)=O)C1OC(C)=O (centres undefined)
29.1 µM (inactive)

Indicate its recorded GI50; the molecule in question is "CC(C)OC(=S)Nc1ccc(Cl)c(/C=N/OC(C)(C)C)c1"
15.1 µM (inactive)

Give me measured GI50, please, for this molecule: "C[C@H](CCC(=O)NN)[C@H]1CC[C@H]2[C@@H]3CC[C@@H]4C[C@H](O)CC[C@]4(C)[C@H]3CC[C@]12C"
54.8 µM (inactive)

Item "Nc1cc2ncnc(Nc3cccc(Br)c3)c2cn1" : provide GI50
3.44 µM (inactive)

Report GI50 for COC(=O)C(Cc1cc(OC)c(OC)c(OC)c1)(NC(=O)c1ccccc1)P(=O)(OC)OC (centres undefined)
> 100 µM (inactive)

Input "CC(/C=C/C(=O)c1sc(-n2nc(-c3ccccc3)cc2-c2ccccc2)nc1C)=C\c1ccccc1" , output reported GI50.
25.6 µM (inactive)

Complete the entry with GI50 for "Cc1c(C)c2c(c(N)c1C#N)C(=O)N(CCc1ccccc1)C2=O"
> 100 µM (inactive)

Supply GI50 value. Item: "NNC(=O)CNC(=O)CSc1nnc(COc2ccc(Cl)cc2)n1-c1ccccc1"
> 100 µM (inactive)

State its GI50 for this molecule: "O[C@@H]1[C@H](OC2c3ccccc3-c3ccccc32)[C@H](OCc2ccccc2)[C@@H]2OC[C@H]1O2"
> 100 µM (inactive)

Identify measured GI50 associated with "O=C(O)CCCNS(=O)(=O)c1ccc2ccccc2c1"
> 100 µM (inactive)

For "Cc1ccc2nc(Cl)c(/C=N/N3C(=O)/C(=C/c4ccccc4S)N=C3c3ccccc3)cc2c1" , write its GI50.
46.6 µM (inactive)

Complete the entry with GI50 for CC(C)N(C(=O)C12C3C4C5(C#N)C3C1(C#N)C5C42I)C(C)C (centres undefined)
> 100 µM (inactive)

Provide one value: measured GI50 of CC(C)(C)N/N=C(\C(=O)Nc1nnc(S)[nH]1)C1C(=O)Nc2ccccc2[S+]1[O-] (centres undefined)
> 100 µM (inactive)
